- Tested on: MS2 coat protein
- assay-comment: apparent KD of MS2 coat protein; designed switch direction (-1 OFF switch, 1 ON switch): -1; higher = weaker reporter binding
- measurement-context: Eterna round: R95; input ligand: FMN 200 uM
This listing pairs sequences with measured apparent KD of MS2 coat protein.
readout-name: apparent KD of MS2 coat protein (nM)

>  <sequence-entry>
AGUACUAUCACGAAAGUGAUAGUACAAAAUAACAAGUGAACAUGAGGAUCACCCAUGUCCUCAUUUGCUCGUCUUAU [Sensor 3 - 18] (puzzle: Sensor v3, turn-off variant 2)

>  <readout-number>
418

$$$$
>  <sequence-entry>
AAUAAUAAGGAGGAUAUCGUAUCGGAAACGAUACGAGAAGGCCUAACAUGAGGAUCACCCAUGUUCCUUAAAUA [Mat - Exclusion 6 - Eli Mod - D61] (puzzle: Exclusion 6)

>  <readout-number>
37.3

$$$$
>  <sequence-entry>
AGAAAUGCCCAUGGCCACAAGCUUUUUGCUUGUCUUACUACAUGAGGAUCACCCAUGUAACAUGGGCUCCUGACAAA [Soarriat] (puzzle: Sensor v3, turn-off variant 2)

>  <readout-number>
12.9

$$$$
>  <sequence-entry>
ACCAUGUCUGAGGAUAUGCAAGCGUACCACGCGGUAGAAGGCAGCACAUGAGGAUCACCCAUGUGGGUAUGCUA [Inanenqu] (puzzle: Exclusion 6)

>  <readout-number>
15.3

$$$$
>  <sequence-entry>
UUUAAUUUUUUUUUUUUACAAGCUUUUUGCUCGUCUUAUACAUGAGGAUCACCCAUGUAAGUGGGAGGUAAAUUAUC [JMF 76] (puzzle: Sensor v3, turn-off variant 2)

>  <readout-number>
54.3

$$$$

====

- Tested on: MS2 coat protein
- assay-comment: apparent KD of MS2 coat protein; designed switch direction (-1 OFF switch, 1 ON switch): -1; higher = weaker reporter binding
- measurement-context: input ligand: FMN 200 uM
Please note: Yes applies when apparent KD of MS2 coat protein is 200 nM or greater, and No applies otherwise.

>  <sequence-entry>
UCAUGGGAGGCAGCUGCCCACAUGAGGAUCACCCAUGUUUUAGACAAACGGGUACAAGCUUUUAAUGCUCUUCUUUG [Eternabot (L2) Solution 49] (Eterna round: R97, puzzle: Sensor, turn-off variant 1)

>  <group-label>
Yes

$$$$
>  <sequence-entry>
GCGUAGUAUGUAGGAUAUCGGUCAGUUUCUGAUCGAGAAGGACAUGAGGAUCACCCAUGUAAAACGUCCGGUUUCUGGAUACGC [JL ENG1 3.57] (Eterna round: R96, puzzle: Exclusion NG 1)

>  <group-label>
No

$$$$
>  <sequence-entry>
UUUUUAUAUGAAGGAUAUACUUAACAUGAGGAUCACCCAUGUGGUGUUGUGAGUGAGUGAGUUUAGUAGAAGGUCAAGAAUUUU [JMF's solution 34] (Eterna round: R96, puzzle: Exclusion NG 2)

>  <group-label>
Yes

$$$$
>  <sequence-entry>
AAAAAAUAAAAAACAAGCUACAUGAGGAUCACCCAUGUUACAAAAAUAAAAUAAAAAUAAAAUAAAAGUAAAAUGGG [Sensor V2: 75 Random] (Eterna round: R96, puzzle: Sensor v2, turn-off variant)

>  <group-label>
No

$$$$
>  <sequence-entry>
AUUACGCAGUAGGAUAUGGGCGGUGAGCACCGUCCAGAAGGACUGACAUGAGGAUCACCCAUGUCCUCCCACAC [Eternabot (L2) Solution 42] (Eterna round: R97, puzzle: Exclusion 6)

>  <group-label>
Yes

$$$$
>  <sequence-entry>
ACUCAACAUGAGGAUCACCCAUGUCAGGAUAUCUCUAUUUUGCGCGGGAGCAGAAUAGAGAGAAGGGACAACCU [Eternabot (Original) Solution 3] (Eterna round: R97, puzzle: Exclusion 1)

>  <group-label>
No

$$$$
>  <sequence-entry>
GCCAGCGUAUAGGAUAUGGCCGGCUUUUGAGUACCAGAAGGAUACACAUGAGGAUCACCCAUGUGGCAUUCGUC [Eternabot (L2) Solution 71] (Eterna round: R97, puzzle: Exclusion 6)

>  <group-label>
No

$$$$
>  <sequence-entry>
GGUACUCAAAGAGUACCAAUACGAACAUGAGGAUCACCCAUGUAGGAUAUGCUACUCAAAGAGUAGCAGAAGGACGUGUAUCUU [Far Half Aptamer v3] (Eterna round: R96, puzzle: Exclusion NG 3)

>  <group-label>
No

$$$$

====

- System: K4 kissing-loop RNA reporter;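 further: bound reporter read as fluorescence of individual clusters on recovered sequencing chips by microscopy, with normalized cluster intensities fitted with a binding model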
- assay-comment: apparent KD of K4 kissing-loop reporter; higher = weaker reporter binding
- measurement-context: Eterna round: R107; input ligand: theophylline 20 uM

>  <sequence-entry>
AAGGUUUAGCACGAUACCAGCCUGGAGGCCAGUGAUGUUGGCCGAUUUGAACAGAAUUAAGGCCCUUGGCAGCGUCUCUAAAACC [Dierra]

>  <apparent KD of K4 kissing-loop reporter [nM]>
144

$$$$
>  <sequence-entry>
UGAUUUAACUGAAGGAGCGGCAAUUGAUAAGUAAAUAUAGUGAUGUUAUAUAAGAUAGAGAGCCAGGUAGGUCGCAGAGGUAUGA [ExArgB.L]

>  <apparent KD of K4 kissing-loop reporter [nM]>
150

$$$$
>  <sequence-entry>
GUGUCCUAGUCGGCCGCCACUGGGUGCAAAAUAGAAGGAGCAUUGCACAUCAGUGAUGUUGAUGUCAGGACCGGGACUAGGGUGU [KL-SSTryp-B5 Brourdwalk1]

>  <apparent KD of K4 kissing-loop reporter [nM]>
563

$$$$
>  <sequence-entry>
CGCCGUAAGGCGGUCGCUCCCACUCCGGAAGGAGCGCCCGGAAGGGCAGGUAGGUCGCCGGAGUGAUGUUCCGGUGGAGGGACCG [#2 Exclusion - Arginine A Attempt #9 (Inspired by Omei)]

>  <apparent KD of K4 kissing-loop reporter [nM]>
270

$$$$
>  <sequence-entry>
GCAUCCUAUGCAGGAUAUUAGCAUUUGAGUGAUGUUCAGACUAGCGAAAGCUAGUCAAUUGCUGGUUAAGAAGGGCAUAGGAUGC

>  <apparent KD of K4 kissing-loop reporter [nM]>
902

$$$$
>  <sequence-entry>
GAGGUACAGGCGGCCGCCACUAGUGAUGUUAGUGAUGUUAGAUAAAGUAUAUAUCGGCGUGUAGAUAGGACCGGGCCUGAUGGAG [ssrykmullin]

>  <apparent KD of K4 kissing-loop reporter [nM]>
42

$$$$
>  <sequence-entry>
AAGCAGUCACCCGAAGCCAUCGAAGAUGGACGAGGACCGGUACGGCCGCCACUCGGAGUGAUGUUCCGAAGACUGCAAAAUAAAA

>  <apparent KD of K4 kissing-loop reporter [nM]>
304

$$$$
>  <sequence-entry>
GUGCAAAGCACCGGCACGAGCAGCUUAAAGGAGGAUAUGACGAAAGUCAGAAGGUUUAGUGAUGUUAGGCCUUGCUUGAGUCGAA [#01 K4 FMN A Exclusion]

>  <apparent KD of K4 kissing-loop reporter [nM]>
413

$$$$
>  <sequence-entry>
GGUUUAUAAGAGGAUACCAGUACAAAUAAAGUACAUUAAUAGUAGAGUGAUGUUCUAAAGUACCCUUGGCAGCUUAGAUUAAGUU [ExTheophylB.F]

>  <apparent KD of K4 kissing-loop reporter [nM]>
217

$$$$
>  <sequence-entry>
AAGUACACGAUAGUGUACACCUAGUGAUGUUAGGAUAUGCAGAUAUGCAGAAGGAACAAGUCAUCUGACAAUAGUCGGAUGACAA [FmnAX 6 #OpenEnded #K4Early]

>  <apparent KD of K4 kissing-loop reporter [nM]>
110

$$$$
>  <sequence-entry>
UAAUAAAUUCCAGCGAUAUCGCUCUUCGAAGGAGCGGACGAAAGUCCAGGUAGGUCGCGGAGAGUGAUGUUCUUUGCGGCGCUGG [whbob_Ex_Arginine_A_2t133]

>  <apparent KD of K4 kissing-loop reporter [nM]>
298

$$$$
>  <sequence-entry>
CGGCCGUUAUGAGAUACCAGAGUGGCGACCAGUGAUGUUGGUCGACGCUUGCGGUCGUCUCUCCCUUGGCAGCUUAGUACGAAAG [Inisar]

>  <apparent KD of K4 kissing-loop reporter [nM]>
73.8

$$$$

====

- Tested on: MS2 coat protein
- assay-comment: apparent KD of MS2 coat protein, switch OFF state (with FMN for OFF switches, without FMN for ON switches); designed switch direction (-1 OFF switch, 1 ON switch): -1; higher = weaker reporter binding
- measurement-context: FMN input: 0 or 200 uM; Eterna round: R93 (includes R88 designs)

>  <sequence-entry>
AAAAAGCUAGGAUAUACAUGAGGAUCACCCAUGUAAAAAAAAAAAAAGGGAAAAAAAAGUAGAAGGAGCAAAAA [Merankhre Mentuhotep VI]

>  <tested-target>
MS2 coat protein

>  <apparent KD of MS2 coat protein>
26 nM

$$$$
>  <sequence-entry>
AAUUAGGUAGGAUAUACAUGAGGAUCACCCAUGUAGGAAAAAAGCUACGAAAAAGAAUGUAGAAGGACCUAAAA [Ex 3 Sunny]

>  <tested-target>
MS2 coat protein

>  <apparent KD of MS2 coat protein>
18.7 nM

$$$$
>  <sequence-entry>
AGCUAGUCAGGAUAUACGAGAAUGAAAGAAGACGUGAAGGGACAUGAGGAUCACCCAUGUAGAAGGGACUAGCA [Diamond 25]

>  <tested-target>
MS2 coat protein

>  <apparent KD of MS2 coat protein>
80.3 nM

$$$$
>  <sequence-entry>
AGCUAGUCAGGAUAUACAAAGAUGUCGAAAGACGUCAAGGGACAUGAGGAUCACCCAUGUAGAAGGGACUAGCA [Mod of Janderson's WEB Mod v.3]

>  <tested-target>
MS2 coat protein

>  <apparent KD of MS2 coat protein>
197 nM

$$$$
>  <sequence-entry>
CGCUAGUCAGGAUAUACGAACAUGUCAAAAGACGUGAAAAAACAUGAGGAUCACCCAUGUAGAAGGGACUAGCG [Mat - Exclusion 2 - JL mod - D17]

>  <tested-target>
MS2 coat protein

>  <apparent KD of MS2 coat protein>
14.9 nM

$$$$
>  <sequence-entry>
AAGAAGUGAGGAUAUACAUGAGGAUCACCCAUGUAAAAGAAAGAGGGAAAAGAGAAAAGUAGAAGGCACAAGAA [Weserkare-meryamun Ptolemy II Philadelphos]

>  <tested-target>
MS2 coat protein

>  <apparent KD of MS2 coat protein>
33.7 nM

$$$$
>  <sequence-entry>
AAAGAGCAAGGAUAUACAUGAGGAUCACCCAUGUAUGGAGAUACAAAACAAAAGAUCAGUAGAAGGUGCGGAUG [Rageleor]

>  <tested-target>
MS2 coat protein

>  <apparent KD of MS2 coat protein>
26.3 nM

$$$$
>  <sequence-entry>
AAAAAGAGAGGAUAUACAUGAGGAUCACCCAUGUGAAAAAAAAAAAAAGGGAAAAGAUGUAGAAGGCUCAAAAA [65%, Moding Exclusion3-cac2, 16]

>  <tested-target>
MS2 coat protein

>  <apparent KD of MS2 coat protein>
32.1 nM

$$$$
>  <sequence-entry>
GAAAAGUCAGGAUAUGCGAAGGCGUCUGAUAGACGAGGCUAGCAGAAGGGACAUGAGGAUCACCCAUGUGAAAG [Mat - Exclusion 4 - Eli mod - D87]

>  <tested-target>
MS2 coat protein

>  <apparent KD of MS2 coat protein>
128 nM

$$$$
>  <sequence-entry>
AAAAAACAUGAGGAUCACCCAUGUCAGGAUAUCCGGUUCUUAAAAAAAAAGAGGCGUUGGAGAAGGGACAUUCC [Chica Displaced 12 - Jieux - Exclusion 1]

>  <tested-target>
MS2 coat protein

>  <apparent KD of MS2 coat protein>
41.7 nM

$$$$
>  <sequence-entry>
AGAUCAUCAGGAUAUACAUAGGUGAAAAAAGUAAAUCCACUACAUGAGGAUCACCCAUGUAGAAGGGAUGAUCA [Ex2 Design 176: Random 4]

>  <tested-target>
MS2 coat protein

>  <apparent KD of MS2 coat protein>
30.3 nM

$$$$
>  <sequence-entry>
GGUUGGCGAGGAUAUACAUGAGGAUCACCCAUGUGAGAGAAAAAAGUGAGUAAGAAAAGUAGAAGGCGCUGACG [salish99-ex3-33]

>  <tested-target>
MS2 coat protein

>  <apparent KD of MS2 coat protein>
4710 nM

$$$$

Numbers sourced from the supplement of paper PMC9170038.
